Molecular target: O-acyltransferase (Oryctolagus cuniculus, UniProt G1SFD9)
Sequence (G1SFD9 1-524): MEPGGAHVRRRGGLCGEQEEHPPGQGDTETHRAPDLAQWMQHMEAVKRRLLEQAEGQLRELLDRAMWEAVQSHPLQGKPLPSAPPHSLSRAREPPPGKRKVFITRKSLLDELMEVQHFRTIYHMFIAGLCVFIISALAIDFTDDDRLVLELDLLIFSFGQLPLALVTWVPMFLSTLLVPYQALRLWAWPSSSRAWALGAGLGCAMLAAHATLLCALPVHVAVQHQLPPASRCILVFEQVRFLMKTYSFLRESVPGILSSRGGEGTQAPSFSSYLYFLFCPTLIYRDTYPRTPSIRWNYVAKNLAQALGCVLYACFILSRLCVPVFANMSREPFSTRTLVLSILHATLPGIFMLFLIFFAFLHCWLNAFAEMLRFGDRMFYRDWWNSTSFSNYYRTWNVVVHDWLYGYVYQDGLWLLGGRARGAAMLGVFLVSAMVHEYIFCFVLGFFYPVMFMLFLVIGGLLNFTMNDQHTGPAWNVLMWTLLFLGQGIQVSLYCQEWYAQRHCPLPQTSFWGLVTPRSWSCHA
Assay: In vitro inhibition of Acyl coenzyme A:cholesterol acyltransferase in intestinal microsomes isolated from cholesterol-fed rabbits
pIC50: −log10 of the molar value.
Measurement name: pIC50

(a) CC(C)c1cccc(C(C)C)c1NC(=O)CC(=O)CCCCCCCCCCO
(b) CCCCCCCCCCCC(=O)C(C)(C)C(=O)N(C)c1c(C(C)C)cccc1C(C)C
Request: Could you tell me which of a and b has the lower pIC50 reading? Write down the label attached to your selection.
Result: b

(I) CC(C)c1cccc(C(C)C)c1NC(=O)CC(=O)C(c1ccccc1)c1ccccc1
(II) CCCCCCCCCCCCCC(=O)CC(=O)Nc1c(C(C)C)cccc1C(C)C
Request: Could you tell me which of I and II has the lower pIC50 reading? Write down the label attached to your selection.
Result: I

---

Target: O-acyltransferase (Oryctolagus cuniculus, UniProt G1SFD9)
Assay: In vitro inhibition of Acyl coenzyme A:cholesterol acyltransferase in intestinal microsomes isolated from cholesterol-fed rabbits
Measurement name: IC50 (µM)

(1) CCCCCCCCCCCC(=O)C(C)(C)C(=O)Nc1c(OC)cc(OC)cc1OC
(2) CCCCCCCCCCC(=O)CC(=O)Nc1c(C(C)C)cccc1C(C)C
(3) CC(C)c1cccc(C(C)C)c1NC(=O)CC(=O)c1ccccc1
(4) CCCCCCCCCCCCCCC(=O)CC(=O)Nc1c(C(C)C)cccc1C(C)C
(5) CCCCCCCCCC(=O)CC(=O)Nc1c(C(C)C)cccc1C(C)C
Request: Rank the items in ascending order with respect to IC50. Reply format: the labels, ordered as requested.
Result: 4, 2, 5, 1, 3

(a) CCCCCCCCCCCCC1CCCC(C(=O)Nc2c(C(C)C)cccc2C(C)C)C(=O)N1 (stereo not given)
(b) CC(C)c1cccc(C(C)C)c1NC(=O)CC(O)CC(c1ccccc1)c1ccccc1 (stereo not given)
Request: // max by IC50 over [ a , b ] Write down the label attached to your selection.
Result: b
(b: 3.5 µM, a: 0.022 µM)

---

Molecular target: O-acyltransferase (Oryctolagus cuniculus)
Assay: In vitro inhibition of Acyl coenzyme A:cholesterol acyltransferase in intestinal microsomes isolated from cholesterol-fed rabbits
Measurement name: IC50 (nM)

Molecule	Measurement name	Endpoint unit	Measured result
CC(C)c1cccc(C(C)C)c1NC(=O)CC(=O)CCCCCCCCCCOC1CCCCO1 (stereo unspecified)	IC50	nM	57

(1) CCCCCCCCCCCCC1CC(C(=O)Nc2c(C(C)C)cccc2C(C)C)C(=O)N1 (stereo unspecified)
(2) CCCCCCCCCCCC(=O)CC(=O)Nc1c(OC)cc(OC)cc1OC
(3) CCCCCCCCCCCCC(=O)CC(=O)Nc1c(C(C)C)cccc1C(C)C
Request: Put the items in sequence by IC50, from largest down. Reply format: the labels, ordered as requested.
Result: 2, 1, 3

(a) CCCCCCCCCCCC(=O)CC(=O)Nc1c(C(C)C)cccc1C(C)C
(b) CC(C)c1cccc(C(C)C)c1NC(=O)CC(=O)C1(c2ccccc2)CCCC1
Request: // max by IC50 over [ a , b ] Write down the label attached to your selection.
Result: a
(a: 69 nM, b: 11 nM)

---

Biological target: O-acyltransferase (Oryctolagus cuniculus, UniProt G1SFD9)
Assay: In vitro inhibition of Acyl coenzyme A:cholesterol acyltransferase in intestinal microsomes isolated from cholesterol-fed rabbits
pIC50: −log10 of the molar value.
Measurement name: pIC50

Compound	Measurement name	Measured result
CCCCCCCC1CCC(C(=O)Nc2c(C(C)C)cccc2C(C)C)C(=O)O1 (stereo not drawn)	pIC50	6.47

(A) CC(C)c1cccc(C(C)C)c1NC(=O)CC(=O)CC(c1ccccc1)c1ccccc1
(B) CC(C)c1cccc(C(C)C)c1NC(=O)C/C(CC(c1ccccc1)c1ccccc1)=N\O
Request: Could you tell me which of A and B has the lower pIC50 reading? Write down the label attached to your selection.
Result: B
(B: 6.68, A: 7.36)

// provenance: ChEMBL document CHEMBL1126837
